- Protocol description: Modulation of gamma secretase in CHO-2B7 cells assessed as reduction in amyloid beta 42 level after 5 hrs by MSD ELISA
- Assay type: cell-based
- Condition summary: Cricetulus griseus, CHO-2B7, 5 h
Quantity measured: IC50 (nM)
Answer with a number only, understood to be in nM.

Incoming: For the compound "CC(C)[C@@H](OC(=O)N1CCC1)[C@H]1C[C@@H](C)[C@H]2[C@H](O1)[C@H](O)[C@@]1(C)[C@@H]3CC[C@H]4C(C)(C)[C@@H](O[C@H]5CN(C6COC6)CCO5)CC[C@@]45C[C@@]35CC[C@]21C" , what IC50 is on record?
Outgoing: 560

Incoming: For the compound "CCO[C@@H]([C@H]1C[C@@H](C)[C@H]2[C@H](O1)[C@H](O)[C@@]1(C)[C@@H]3CC[C@H]4C(C)(C)[C@@H](OC(=O)NCCN(C)C)CC[C@@]45C[C@@]35CC[C@]21C)C(C)(C)O" , what IC50 is on record?
Outgoing: 240

Incoming: For the compound "CCO[C@@H]([C@H]1C[C@@H](C)[C@H]2[C@H](O1)[C@H](O)[C@@]1(C)[C@@H]3CC[C@H]4C(C)(C)[C@@H](OC(=O)N5CCC5)CC[C@@]45C[C@@]35CC[C@]21C)C(C)(C)O" , what IC50 is on record?
Outgoing: 140

Incoming: For the compound "CCO[C@@H]([C@H]1C[C@@H](C)[C@H]2[C@H](O1)[C@H](O)[C@@]1(C)[C@@H]3CC[C@H]4C(C)(C)[C@@H](O[C@H]5CN(CCO)CCO5)CC[C@@]45C[C@@]35CC[C@]21C)C(C)(C)O" , what IC50 is on record?
Outgoing: 260

###

- Protocol description: Metabolic stability in human liver microsomes assessed as compound remaining at 1 uM at 60 mins by LC/MS/MS analysis in absence of NADPH
- Format: ADME, Microsome
- Condition summary: liver microsomes, read-out: Stability
Returns: string. Value is met if measured remaining at 1 h, 1 µM is below 80%, and not met if it is greater than or equal to it.

Incoming: Lab note: remaining at 1 h, 1 µM threshold 80%. Does this molecule come in strictly under it? "CCO[C@@H]([C@H]1C[C@@H](C)[C@H]2[C@H](O1)[C@H](O)[C@@]1(C)[C@@H]3CC[C@H]4C(C)(C)[C@@H](OC(=O)N5CCOCC5)CC[C@@]45C[C@@]35CC[C@]21C)C(C)(C)O"
Outgoing: met

Incoming: Lab note: remaining at 1 h, 1 µM threshold 80%. Does this molecule come in strictly under it? "CNC(=O)O[C@@H]([C@H]1C[C@@H](C)[C@H]2[C@H](O1)[C@H](O)[C@@]1(C)[C@@H]3CC[C@H]4C(C)(C)[C@@H](O)CC[C@@]45C[C@@]35CC[C@]21C)C(C)(C)O"
Outgoing: not met

Incoming: Lab note: remaining at 1 h, 1 µM threshold 80%. Does this molecule come in strictly under it? "CC(=O)O[C@@H]([C@H]1C[C@@H](C)[C@H]2[C@H](O1)[C@H](O)[C@@]1(C)[C@@H]3CC[C@H]4C(C)(C)[C@@H](OC(=O)N5CCC5)CC[C@@]45C[C@@]35CC[C@]21C)C(C)(C)O"
Outgoing: met

Incoming: Lab note: remaining at 1 h, 1 µM threshold 80%. Does this molecule come in strictly under it? "CC(=O)OC[C@H]1C[C@@H](C)[C@H]2[C@H](O1)[C@H](O)[C@@]1(C)[C@@H]3CC[C@H]4C(C)(C)[C@@H](O[C@H]5CN(C(=O)CC6CC6)CCO5)CC[C@@]45C[C@@]35CC[C@]21C"
Outgoing: met

Incoming: Lab note: remaining at 1 h, 1 µM threshold 80%. Does this molecule come in strictly under it? "C[C@@H]1C[C@H](COC(N)=O)O[C@H]2[C@H]1[C@@]1(C)CC[C@@]34C[C@@]35CC[C@H](O[C@H]3CN(C(=O)CC6CC6)CCO3)C(C)(C)[C@@H]5CC[C@H]4[C@]1(C)[C@H]2O"
Outgoing: met

Incoming: Lab note: remaining at 1 h, 1 µM threshold 80%. Does this molecule come in strictly under it? "CCO[C@@H]([C@H]1C[C@@H](C)[C@H]2[C@H](O1)[C@H](O)[C@@]1(C)[C@@H]3CC[C@H]4C(C)(C)[C@@H](O)CC[C@@]45C[C@@]35CC[C@]21C)C(C)(C)O"
Outgoing: not met

Incoming: Lab note: remaining at 1 h, 1 µM threshold 80%. Does this molecule come in strictly under it? "C[C@@H]1C[C@H]([C@H](O)C(C)(C)O)O[C@H]2[C@H]1[C@@]1(C)CC[C@@]34C[C@@]35CC[C@H](O[C@H]3CN([C@H]6CCNC6=O)CCO3)C(C)(C)[C@@H]5CC[C@H]4[C@]1(C)[C@H]2O"
Outgoing: not met

Incoming: Lab note: remaining at 1 h, 1 µM threshold 80%. Does this molecule come in strictly under it? "CC(=O)O[C@@H]([C@H]1C[C@@H](C)[C@H]2[C@H](O1)[C@H](O)[C@@]1(C)[C@@H]3CC[C@H]4C(C)(C)[C@@H](O[C@H]5CNCCO5)CC[C@@]45C[C@@]35CC[C@]21C)C(C)(C)O"
Outgoing: met

Incoming: Lab note: remaining at 1 h, 1 µM threshold 80%. Does this molecule come in strictly under it? "CCO[C@@H]([C@H]1C[C@@H](C)[C@H]2[C@H](O1)[C@H](O)[C@@]1(C)[C@@H]3CC[C@H]4C(C)(C)[C@@H](O[C@H]5CNCCO5)CC[C@@]45C[C@@]35CC[C@]21C)C(C)(C)O"
Outgoing: met

Incoming: Lab note: remaining at 1 h, 1 µM threshold 80%. Does this molecule come in strictly under it? "CNC(=O)O[C@H](C(C)C)[C@H]1C[C@@H](C)[C@H]2[C@H](O1)[C@H](O)[C@@]1(C)[C@@H]3CC[C@H]4C(C)(C)[C@@H](O)CC[C@@]45C[C@@]35CC[C@]21C"
Outgoing: not met

###

I'd appreciate it if you could supply remaining at 1 h, 1 µM values for the items below.
- Protocol description: Metabolic stability in human liver microsomes assessed as compound remaining at 1 uM at 60 mins by LC/MS/MS analysis in absence of NADPH
- Type: ADME, Microsome
- Condition summary: liver microsomes, read-out: Stability
Answer with a number only, understood to be in %.

Incoming: For the compound "C[C@@H]1C[C@H](COC(=O)N(C)C)O[C@H]2[C@H]1[C@@]1(C)CC[C@@]34C[C@@]35CC[C@H](O[C@H]3CN(C(=O)CC6CC6)CCO3)C(C)(C)[C@@H]5CC[C@H]4[C@]1(C)[C@H]2O" , what remaining at 1 h, 1 µM is on record?
Outgoing: 81

Incoming: For the compound "CC(C)CO[C@@H]([C@H]1C[C@@H](C)[C@H]2[C@H](O1)[C@H](O)[C@@]1(C)[C@@H]3CC[C@H]4C(C)(C)[C@@H](O[C@H]5CN(C6COC6)CCO5)CC[C@@]45C[C@@]35CC[C@]21C)C(C)(C)O" , what remaining at 1 h, 1 µM is on record?
Outgoing: 78

Incoming: For the compound "CNC(=O)OC[C@H]1C[C@@H](C)[C@H]2[C@H](O1)[C@H](O)[C@@]1(C)[C@@H]3CC[C@H]4C(C)(C)[C@@H](O[C@H]5CN(C(=O)CC6CC6)CCO5)CC[C@@]45C[C@@]35CC[C@]21C" , what remaining at 1 h, 1 µM is on record?
Outgoing: 81

Incoming: For the compound "CC(C)[C@@H](OC(=O)N(C)C)[C@H]1C[C@@H](C)[C@H]2[C@H](O1)[C@H](O)[C@@]1(C)[C@@H]3CC[C@H]4C(C)(C)[C@@H](O)CC[C@@]45C[C@@]35CC[C@]21C" , what remaining at 1 h, 1 µM is on record?
Outgoing: 81

###

I'd appreciate it if you could supply pIC50 values for the items below.
- Protocol description: Modulation of gamma secretase in CHO-2B7 cells assessed as reduction in amyloid beta 42 level after 5 hrs by MSD ELISA
- Type: cell-based
- Condition summary: Cricetulus griseus, CHO-2B7, 5 h
pIC50 is defined as minus the log10 of a concentration measured in mol/L.

Incoming: For the compound "CC(C)[C@@H](OC(=O)N1CCC1)[C@H]1C[C@@H](C)[C@H]2[C@H](O1)[C@H](O)[C@@]1(C)[C@@H]3CC[C@H]4C(C)(C)[C@@H](OC(=O)NC5CN(C)C5)CC[C@@]45C[C@@]35CC[C@]21C" , what pIC50 is on record?
Outgoing: 6.77

Incoming: For the compound "CC(C)[C@@H](OC(N)=O)[C@H]1C[C@@H](C)[C@H]2[C@H](O1)[C@H](O)[C@@]1(C)[C@@H]3CC[C@H]4C(C)(C)[C@@H](OC(N)=O)CC[C@@]45C[C@@]35CC[C@]21C" , what pIC50 is on record?
Outgoing: 6.15

Incoming: For the compound "CC(C)[C@@H](OC(=O)N(C)C)[C@H]1C[C@@H](C)[C@H]2[C@H](O1)[C@H](O)[C@@]1(C)[C@@H]3CC[C@H]4C(C)(C)[C@@H](OC(=O)N5CCOCC5)CC[C@@]45C[C@@]35CC[C@]21C" , what pIC50 is on record?
Outgoing: 5.13

Incoming: For the compound "CC(C)[C@@H](OC(=O)N1CCC1)[C@H]1C[C@@H](C)[C@H]2[C@H](O1)[C@H](O)[C@@]1(C)[C@@H]3CC[C@H]4C(C)(C)[C@@H](O[C@H]5CN(C(=O)CNS(=O)(=O)C(F)(F)F)CCO5)CC[C@@]45C[C@@]35CC[C@]21C" , what pIC50 is on record?
Outgoing: 5.89

Incoming: For the compound "CCO[C@@H]([C@H]1C[C@@H](C)[C@H]2[C@H](O1)[C@H](O)[C@@]1(C)[C@@H]3CC[C@H]4C(C)(C)[C@@H](OC(N)=O)CC[C@@]45C[C@@]35CC[C@]21C)C(C)(C)O" , what pIC50 is on record?
Outgoing: 6.68

Incoming: For the compound "CC(=O)O[C@H](C(C)C)[C@H]1C[C@@H](C)[C@H]2[C@H](O1)[C@H](O)[C@@]1(C)[C@@H]3CC[C@H]4C(C)(C)[C@@H](O)CC[C@@]45C[C@@]35CC[C@]21C" , what pIC50 is on record?
Outgoing: 6.11

Incoming: For the compound "C[C@@H]1C[C@H]([C@H](O)C(C)(C)O)O[C@H]2[C@H]1[C@@]1(C)CC[C@@]34C[C@@]35CC[C@H](OC(=O)NCCN(C)C)C(C)(C)[C@@H]5CC[C@H]4[C@]1(C)[C@H]2O" , what pIC50 is on record?
Outgoing: 5.24

Incoming: For the compound "CC(=O)O[C@@H]([C@H]1C[C@@H](C)[C@H]2[C@H](O1)[C@H](O)[C@@]1(C)[C@@H]3CC[C@H]4C(C)(C)[C@@H](O[C@H]5CN([C@H]6CCNC6=O)CCO5)CC[C@@]45C[C@@]35CC[C@]21C)C(C)(C)O" , what pIC50 is on record?
Outgoing: 6.77

Incoming: For the compound "CCO[C@@H]([C@H]1C[C@@H](C)[C@H]2[C@H](O1)[C@H](O)[C@@]1(C)[C@@H]3CC[C@H]4C(C)(C)[C@@H](OC(=O)NCCN5CCC5)CC[C@@]45C[C@@]35CC[C@]21C)C(C)(C)O" , what pIC50 is on record?
Outgoing: 6.66

Incoming: For the compound "CCO[C@@H]([C@H]1C[C@@H](C)[C@H]2[C@H](O1)[C@H](O)[C@@]1(C)[C@@H]3CC[C@H]4C(C)(C)[C@@H](O[C@H]5CN(C(=O)CC6CNC6)CCO5)CC[C@@]45C[C@@]35CC[C@]21C)C(C)(C)O" , what pIC50 is on record?
Outgoing: 6.92
